B1: FEM1B (parent)
chain: TLAALLLNRSESDIRYLLGYVSQQ

Variants of: B1
Test: protein stability index of a GFP-peptide fusion (GPS, HEK-293T) (PSI 1-6); higher = more stable;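 also: lentivirally expressed fusions sorted by FACS into six bins by GFP to DsRed ratio, PSI derived from sequencing read proportions per bin multiplied by bin number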
Settings: c terminus: a fixed tail appended
The variants listed here are annotated with their protein stability index.
Give a plain numeric answer without units written out.

Below: 8 variants and their reported protein stability index.
L18A; 1.98
Y20A; 2.91
Y20D; 3.08
Y16Q; 3.05
Q24Y; 2.22
L17T; 2.9
A4F; 3.05
N8D; 3.63

Task: Tell me the measured protein stability index of S10A , please.
Result: 3.37

Task: How about this variant: I14G
Result: 3.06

Task: How about this variant: I14T
Result: 2.56

Task: How about this variant: S12Q
Result: 2.69

Task: How about this variant: A3R
Result: 2.25

Task: How about this variant: Y16F
Result: 3.75

Task: How about this variant: L2C
Result: 3.06

Task: How about this variant: L2V
Result: 2.68
